test: protein stability index of a GFP-peptide fusion (yeast GPS) (PSI 1-4); higher = more stable; sorted into four equal gates, so the index is relative within each strain; conditions: ubr1∆
experimental endpoint: protein stability index

Give the value of protein stability index reported for the following: KNSSVSSLMNGLGYVFE [SRB5]
2.51

Query protein stability index for DFDGDEMNLHVPQSEET [RPO21]
3.23

Report measured protein stability index; entry is YKAISAQADKQDISSST [FAS2]
2.83

Kindly indicate its recorded protein stability index. Item: SIISSKTSCVVEKRIGK [RGR1]
2.69

Return reported protein stability index. Input sequence: LVADGVFYAELNEFFTR [RPS3]
3.28

Read the entry AALDITNVQRIAAYIRR [SMC1] and write its reported protein stability index.
3.09

Please supply the value of reported protein stability index for the item NHASMDVYNRELDEHTT [BRR2]
3.26

Name the recorded protein stability index of the item HGKASRQQYYSGVQVGG [SNF6] in your answer.
2.21

Tell us which protein stability index value is on record for YYSRITLLRLNELLDLT [RPN5]
1.97

Output measured protein stability index for this item: FPTTSHESLVTTLLRKK [MED8]
1.95

Please give the documented protein stability index of QINKAQILENYNALFQQ [YJL039C/NUP192]
3.03

Could you please provide reported protein stability index for LLTAKHGMTLRESFEDN [RPO21] ? Thanks!
1.55

Supply recorded protein stability index for AHTPMLQMYSKIRRHPN [FAS1] here.
2.95

Supply reported protein stability index belonging to this sequence: ILNLLNILTTHLSHPGT [ECM29]
1.76

Give recorded protein stability index. FRNPTPLLSNYASKINR [RGR1]
1.66
